test: Drug uptake in brain of Sprague-Dawley rat at 30 mg/kg, po measured after 4 hrs
Assay type: ADME, organism-based
Design: dose 30 mg/kg, route oral
experimental setup: read-out: Drug uptake

>  <chem smiles>
COc1ccc(Cn2c([C@H]3CNCCS3)nc3ccccc32)cc1

>  <concentration at 4 h, ng/g>
380

$$$$

====

test: Drug uptake in brain of Sprague-Dawley rat at 10 mg/kg, po measured after 4 hrs
Format: ADME, organism-based
Parameters: dose 10 mg/kg, route oral
experimental setup: read-out: Drug uptake

>  <chem smiles>
CN(CC1CCOCC1)C1CCN(c2nc3ccccc3n2Cc2ccc(F)cc2)CC1

>  <measurement units>
ng/g

>  <concentration at 4 h>
94

$$$$

====

test: Ratio drug uptake in brain to plasma of Sprague-Dawley rat at 30 mg/kg, po measured after 4 hrs
Format: ADME, organism-based
Parameters: dose 30 mg/kg, route oral
experimental setup: read-out: BPR
readout kind: Kp at 4 h

>  <chem smiles>
COc1ccc(Cn2c([C@H]3CNCCS3)nc3ccccc32)cc1

>  <readout kind>
Kp at 4 h

>  <observed result>
1.4

$$$$

====

Below, each entry is listed alongside its reported logP.
test: Lipophilicity, log P of the compound
Assay type: physicochemical
experimental setup: octanol/water
readout kind: logP

>  <compound>
Cc1ccc(Cn2c(C3CNCCO3)nc3ccccc32)cc1C (single isomer, unassigned; (+))

>  <observed result>
3.4

$$$$
>  <compound>
Cc1ccc(Cn2c([C@@H]3CNCCS3)nc3ccccc32)cc1C

>  <observed result>
3.3

$$$$

====

test: Drug uptake in plasma of Sprague-Dawley rat at 30 mg/kg, po measured after 4 hrs
Assay type: ADME, organism-based
Design: dose 30 mg/kg, route oral
experimental setup: read-out: Drug uptake
readout kind: concentration at 4 h (ng/mL)

>  <chem smiles>
COc1ccc(Cn2c([C@H]3CNCCS3)nc3ccccc32)cc1

>  <observed result>
260

$$$$
